Literature roundup of Aurora kinase A (Homo sapiens, UniProt O14965) data, read-out Ki.

Sample records with Ki:
CCCN(CC)c1cc(-c2c(N)nn3cc(-c4ccncc4)cnc23)ncn1    < 500 nM
COCCCN1CCN(C(=O)c2ccc(-c3cnc4c(-c5ccccn5)c(N)nn4c3)nc2)CC1    < 500 nM
Cc1cc(Nc2nc(Nc3cccc(-c4ccccc4)c3)nc3ccccc23)n[nH]1    < 100 nM

Now let's try a different one.
Entry `CCSc1ccc(-c2nc(Nc3cc(C)n[nH]3)c3ccccc3n2)cc1` has what Ki?
< 100 nM

* * *

Literature roundup of Aurora kinase A (Homo sapiens) data, read-out Ki.

Sample records with Ki:
CCOC(=O)c1ccc(Nc2ncn(-c3ccnc(N4C[C@@H](C)N(C(C)=O)[C@@H](C)C4)c3)n2)cc1    < 100 nM
c1ccc(-c2cc(Nc3cc(C4CC4)[nH]n3)nc(Oc3ccc4ccccc4c3)n2)cc1    100 to 1000 nM
COc1cnc2[nH]cc(-c3oncc3-c3cccc(F)c3F)c2c1    200 to 1000 nM
Cc1cc(Nc2nc(Sc3ccccc3O)nc3ccccc23)n[nH]1    < 100 nM
Nc1nn2cc(-c3ccc(N4CCC(N)CC4)nc3)cnc2c1-c1ccccn1    < 500 nM

Param readout = Ki; param system = Aurora kinase A (Homo sapiens); param query = `Cc1cccnc1-c1c(N)nn2cc(-c3ccncc3)cnc12` ; response: value
500 to 5000 nM

Could you do the same for `FC(F)(F)c1ccc2[nH]nc(Nc3nc(-c4ccccc4C(F)(F)F)nc4c3CCCC4)c2c1` , please?
1000 to 20000 nM

Could you do the same for CNC(=O)[C@@H]1[C@H](Nc2nc(Nc3cnn(C)c3)ncc2F)[C@H]2C=C[C@@H]1C2.CNC(=O)[C@H]1[C@@H](Nc2nc(Nc3cnn(C)c3)ncc2F)[C@@H]2C=C[C@H]1C2 (mixture of isomers) , please?
100 to 1000 nM

Could you do the same for `CCC(=O)Nc1ccc(Sc2nc(Nc3cc(C)n[nH]3)cc(N3CCC(NC(C)(C)C)CC3)n2)cc1` , please?
≤ 10 nM

Could you do the same for `Cn1cc(Nc2ncc([N+](=O)[O-])c(N[C@H]3[C@@H](C(N)=O)[C@@H]4C=C[C@H]3C4)n2)cn1` , please?
< 100 nM

Could you do the same for `c1ccc(-c2nc(Nc3ccn[nH]3)c3ccccc3n2)cc1` , please?
< 100 nM

Could you do the same for `CCN1CCN(C(=O)c2cccc(-c3cnc4c(-c5ccccn5)c(N)nn4c3)n2)CC1` , please?
500 to 5000 nM

Could you do the same for `c1ccc2c(Nc3ccn[nH]3)nc(-c3ccncc3)nc2c1` , please?
100 to 1000 nM

Could you do the same for NC(=O)[C@@H]1[C@H](Nc2nc(Nc3cnn(CCN4CCCC4)c3)ncc2F)[C@H]2C=C[C@@H]1C2.NC(=O)[C@H]1[C@@H](Nc2nc(Nc3cnn(CCN4CCCC4)c3)ncc2F)[C@@H]2C=C[C@H]1C2 (mixture of isomers) , please?
< 100 nM

Could you do the same for `Cc1c(-c2ccnc(Nc3ccc(N4CCN(Cc5ccccc5)CC4)cc3)n2)sc(=O)n1C` , please?
39 nM

* * *

Literature roundup of Aurora kinase A (Homo sapiens, UniProt O14965) data, read-out Ki.

COc1ccc(Nc2nc(Nc3cc(C4CC4)[nH]n3)c3ccccc3n2)cc1OC    < 100 nM
Cc1cc(Nc2cc(N3CCC(N4CCCC4)CC3)nc(Sc3ccc(NC(=O)CC4CCCC4)cc3)n2)n[nH]1    ≤ 10 nM
Fc1ccc2n[nH]c(Nc3nc(-c4ccccc4)nc4ccccc34)c2c1    100 to 1000 nM
NC(=O)[C@@H]1[C@H](Nc2nc(Nc3cnn(C4CNC4)c3)ncc2Cl)[C@H]2C=C[C@@H]1C2    < 100 nM
Cc1ccnc(-c2c(N)nn3cc(-c4ccncc4)cnc23)c1    < 500 nM
Cn1cc(Nc2ncc(Cl)c(Nc3ccccc3C(C)(C)O)n2)cn1    < 100 nM

Entry `N#CCc1ccc(Nc2nc(Nc3cc(C4CC4)[nH]n3)c3ccccc3n2)cc1` has what Ki?
< 100 nM

Could you do the same for `Cc1cc(Nc2nc(Sc3ccc(C(=O)NCCCN(C)C)cc3)nc3ccccc23)n[nH]1` , please?
100 to 1000 nM

* * *

Literature roundup of Aurora kinase A (Homo sapiens, UniProt O14965) data, read-out pKi.
pKi: −log10 of the molar value.

Param readout = pKi; param system = Aurora kinase A (Homo sapiens, UniProt O14965); param query = Cc1cc(Nc2cc(N3CCC(F)C3)nc(Sc3ccc(NC(=O)CCC(F)(F)F)cc3)n2)[nH]n1 (stereo not shown) ; response: value
≥ 8.00

Could you do the same for `CN1CCN(C(=O)c2cccc(-c3cnc4c(-c5ccccn5)c(N)nn4c3)c2)CC1` , please?
5.30 to 6.30

Could you do the same for `Cc1cccc(Nc2nc(Nc3cc(C)[nH]n3)c3ccccc3n2)c1` , please?
> 7.00

Could you do the same for `CC(=O)Nc1ccc(-c2cnc3[nH]cc(-c4oncc4-c4cccc(F)c4F)c3c2)cc1` , please?
> 6.70

Could you do the same for CCn1cc(Nc2ncc(Cl)c(N[C@@H]3[C@H](C(N)=O)[C@@H]4C=C[C@H]3C4)n2)cn1.CCn1cc(Nc2ncc(Cl)c(N[C@H]3[C@@H](C(N)=O)[C@H]4C=C[C@@H]3C4)n2)cn1 (mixture of isomers) , please?
> 7.00

Could you do the same for `Cc1cc(Nc2cc(C)c(C#N)c(NCCOc3ccccc3)n2)n[nH]1` , please?
8.52

Could you do the same for `c1ccc(Sc2nc(Nc3cc(C4CC4)[nH]n3)c3ccccc3n2)cc1` , please?
> 7.00

* * *

Literature roundup of Aurora kinase A (Homo sapiens, UniProt O14965) data, read-out Ki.

Cc1cc(Nc2cc(-c3ccco3)n[nH]2)nc(-c2ccccc2OC(F)(F)F)n1    1000 to 20000 nM
COc1ccc(Nc2nc(Nc3cc(C4CC4)[nH]n3)c3ccccc3n2)cn1    < 100 nM
CC(C)NC(=O)C1CCCC1Nc1nc(Nc2cnn(C3CCNCC3)c2)ncc1Cl (racemic)    < 100 nM
COCCCc1cc(Nc2nc(-c3ccccc3)nc3ccccc23)[nH]n1    < 100 nM
CCn1cc(Nc2ncc(Cl)c(N[C@@H]3[C@H]4CC[C@H](C4)[C@@H]3C(N)=O)n2)cn1.CCn1cc(Nc2ncc(Cl)c(N[C@H]3[C@@H]4CC[C@@H](C4)[C@H]3C(N)=O)n2)cn1 (mixture of isomers)    < 100 nM
Cc1cc(Nc2nc(N3CCC(C)CC3)nc3ccccc23)[nH]n1    < 100 nM
COc1ccc(Cn2cc(Nc3ncc(Cl)c(N[C@H]4[C@@H](C(N)=O)[C@@H]5C=C[C@H]4C5)n3)cn2)cc1F    < 100 nM
CCN1CCN(C(=O)c2ccc(-c3cnc4c(-c5ccccn5)c(N)nn4c3)nc2)C(O)C1 (stereo not shown)    < 500 nM
CC(=O)N1[C@H](C)CN(c2cc(-n3cnc(Nc4ccc(NC(=O)C(F)(F)F)cc4)n3)ccn2)C[C@@H]1C    < 100 nM

Now let's try a different one.
Entry `CC(=O)N1[C@H](C)CN(c2cc(-n3cnc(Nc4ccc(N)cc4)n3)ccn2)C[C@@H]1C` has what Ki?
< 100 nM

* * *

Literature roundup of UniProtKB O14965 data, read-out Ki.

CC(=O)Nc1ccc(Sc2nc(Nc3cc(C)n[nH]3)cc(-c3ccc(OCCCN(C)C)cc3)n2)cc1    1000 to 10000 nM
CCN(CCCCN)C(=O)c1ccc(-c2cnc3c(-c4ccccn4)c(N)nn3c2)nc1    500 to 5000 nM
Cc1cc(Nc2nc(NCc3ccc(F)cc3)nc3ccccc23)n[nH]1    < 100 nM
CNc1nc(C)c(-c2ccnc(Nc3ccc(Cl)nc3)n2)s1    1000 nM
COc1cc(C2=NNC(=O)C2=NNc2ccc(N3CCOCC3)cc2)ccc1OCc1ccccc1    < 100 nM

Entry `Cc1cc(Nc2nc(-c3c(C)cccc3C)nc3ccccc23)n[nH]1` has what Ki?
100 to 1000 nM

Could you do the same for `Cc1c(Nc2ncc(Br)c(N[C@H]3[C@@H](C(N)=O)C[C@H]4C[C@@H]3C4(C)C)n2)cnn1C` , please?
< 100 nM

Could you do the same for CC(C)NC(=O)[C@@H]1CCC[C@@H]1Nc1nc(Nc2cnn(C)c2)ncc1Cl.CC(C)NC(=O)[C@H]1CCC[C@H]1Nc1nc(Nc2cnn(C)c2)ncc1Cl (mixture of isomers) , please?
< 100 nM

Could you do the same for `Cc1cc(Nc2cc(-c3cccnc3)c(C#N)c(NCCOc3ccccc3)n2)n[nH]1` , please?
3 nM

Could you do the same for `Nc1nn2cc(-c3ccc(CN4CC[C@@H](N)C4)cc3)cnc2c1-c1ccccn1` , please?
< 500 nM
